Assay Summary: Aqueous solubility measurements
Assay type: physicochemical
Details: media 0.01N HCl; 24 hours at 25° C.
Reported Metric: Visual solubility

1) Cc1nc(-c2ccc(OCC(C)C)c(C#N)c2)sc1C(=O)O [Form V]; few particles
2) Cc1nc(-c2ccc(OCC(C)C)c(C#N)c2)sc1C(=O)O [Form G of U.S. Pat. No. 6,225,474, reference compound]; few particles
3) Cc1nc(-c2ccc(OCC(C)C)c(C#N)c2)sc1C(=O)O [Form XI]; few particles

###

Assay Summary: Hygroscopicity measurements (DVS sorption/desorption profiles)
Type: physicochemical
Details: Target % P/P0 90.0; 25° C.
Procedure: The sorption/desorption profiles of the forms of the present invention were tested at 25° C. under 0-90% relative humidity. The forms of the present invention were classified according to the following criteria: Deliquescent: Sufficient water is absorbed to form a liquid. […] Hygroscopic: Increase in mass is less than 15% and equal to or greater than 2%. Slightly hygroscopic: Increase in mass is less than 2% and equal to or greater than 0.2%. Non-hygroscopic: Increase in mass is less than 0.2%.
Reported Metric: Change in Mass (%) - ref, Sorption

1) Cc1nc(-c2ccc(OCC(C)C)c(C#N)c2)sc1C(=O)O [Form V]; 36.92
2) Cc1nc(-c2ccc(OCC(C)C)c(C#N)c2)sc1C(=O)O [Form G of U.S. Pat. No. 6,225,474, reference compound]; 2.776

A. Cc1nc(-c2ccc(OCC(C)C)c(C#N)c2)sc1C(=O)O [Form XI]
B. Cc1nc(-c2ccc(OCC(C)C)c(C#N)c2)sc1C(=O)O [Form IX]
Among A and B , which shows a numerically higher Change in Mass (%) - ref, Sorption result? Please respond with the label that marks your chosen entry.
A

###

Assay Summary: Bulk and tapped density measurements
Assay type: physicochemical
Reported Metric: Bulk Density (g/mL)

1. Cc1nc(-c2ccc(OCC(C)C)c(C#N)c2)sc1C(=O)O [Form XI]; 0.346
2. Cc1nc(-c2ccc(OCC(C)C)c(C#N)c2)sc1C(=O)O [Form V]; 0.444

P. Cc1nc(-c2ccc(OCC(C)C)c(C#N)c2)sc1C(=O)O [Form G of U.S. Pat. No. 6,225,474, reference compound]
Q. Cc1nc(-c2ccc(OCC(C)C)c(C#N)c2)sc1C(=O)O [Form IX]
For P and Q , which recorded Bulk Density is lower? Please respond with the label that marks your chosen entry.
Q

###

Assay Summary: Aqueous solubility measurements
Type: physicochemical
Details: media pH 7.4 (USP); 24 hours at 25° C.
Reported Metric: Visual solubility

1) Cc1nc(-c2ccc(OCC(C)C)c(C#N)c2)sc1C(=O)O [Form V]; Slightly turbid
2) Cc1nc(-c2ccc(OCC(C)C)c(C#N)c2)sc1C(=O)O [Form IX]; Slightly turbid

###

Assay Summary: Hygroscopicity measurements (DVS sorption/desorption profiles)
Assay type: physicochemical
Details: Target % P/P0 60.0; 25° C.
Reported Metric: Change in Mass (%) - ref, Hysteresis

Solved cases (2 shown):
1. Cc1nc(-c2ccc(OCC(C)C)c(C#N)c2)sc1C(=O)O [Form G of U.S. Pat. No. 6,225,474, reference compound]; 0.158
2. Cc1nc(-c2ccc(OCC(C)C)c(C#N)c2)sc1C(=O)O [Form IX]; 0.221

I. Cc1nc(-c2ccc(OCC(C)C)c(C#N)c2)sc1C(=O)O [Form XI]
II. Cc1nc(-c2ccc(OCC(C)C)c(C#N)c2)sc1C(=O)O [Form V]
For I and II , which recorded Change in Mass (%) - ref, Hysteresis is lower? Please respond with the label that marks your chosen entry.
I
(I: 0.166%, II: 7.02%)

###

Assay Summary: Hygroscopicity measurements (DVS sorption/desorption profiles)
Format: physicochemical
Details: Target % P/P0 70.0; 25° C.
Description: The sorption/desorption profiles of the forms of the present invention were tested at 25° C. under 0-90% relative humidity. The forms of the present invention were classified according to the following criteria: Deliquescent: Sufficient water is absorbed to form a liquid. […] Hygroscopic: Increase in mass is less than 15% and equal to or greater than 2%. Slightly hygroscopic: Increase in mass is less than 2% and equal to or greater than 0.2%. Non-hygroscopic: Increase in mass is less than 0.2%.
Reported Metric: Change in Mass (%) - ref, Sorption

Solved cases (2 shown):
1) Cc1nc(-c2ccc(OCC(C)C)c(C#N)c2)sc1C(=O)O [Form XI]; 2.057
2) Cc1nc(-c2ccc(OCC(C)C)c(C#N)c2)sc1C(=O)O [Form V]; 1.59

1. Cc1nc(-c2ccc(OCC(C)C)c(C#N)c2)sc1C(=O)O [Form G of U.S. Pat. No. 6,225,474, reference compound]
2. Cc1nc(-c2ccc(OCC(C)C)c(C#N)c2)sc1C(=O)O [Form IX]
For 1 and 2 , which recorded Change in Mass (%) - ref, Sorption is lower? Please respond with the label that marks your chosen entry.
2
(2: 0.747%, 1: 2.109%)

###

Assay Summary: Hygroscopicity measurements (DVS sorption/desorption profiles)
Type: physicochemical
Details: Target % P/P0 60.0; 25° C.
Protocol: The sorption/desorption profiles of the forms of the present invention were tested at 25° C. under 0-90% relative humidity. The forms of the present invention were classified according to the following criteria: Deliquescent: Sufficient water is absorbed to form a liquid. […] Hygroscopic: Increase in mass is less than 15% and equal to or greater than 2%. Slightly hygroscopic: Increase in mass is less than 2% and equal to or greater than 0.2%. Non-hygroscopic: Increase in mass is less than 0.2%.
Reported Metric: Change in Mass (%) - ref, Desorption

Solved cases (2 shown):
1. Cc1nc(-c2ccc(OCC(C)C)c(C#N)c2)sc1C(=O)O [Form G of U.S. Pat. No. 6,225,474, reference compound]; 2.074
2. Cc1nc(-c2ccc(OCC(C)C)c(C#N)c2)sc1C(=O)O [Form V]; 7.34

a. Cc1nc(-c2ccc(OCC(C)C)c(C#N)c2)sc1C(=O)O [Form IX]
b. Cc1nc(-c2ccc(OCC(C)C)c(C#N)c2)sc1C(=O)O [Form XI]
For a and b , which recorded Change in Mass (%) - ref, Desorption is lower? Please respond with the label that marks your chosen entry.
a
(a: 0.786%, b: 1.948%)

###

Assay Summary: Hygroscopicity measurements (DVS sorption/desorption profiles)
Assay type: physicochemical
Details: Target % P/P0 20.0; 25° C.
Reported Metric: Change in Mass (%) - ref, Desorption

Solved cases (2 shown):
1. Cc1nc(-c2ccc(OCC(C)C)c(C#N)c2)sc1C(=O)O [Form XI]; 1.210
2. Cc1nc(-c2ccc(OCC(C)C)c(C#N)c2)sc1C(=O)O [Form G of U.S. Pat. No. 6,225,474, reference compound]; 1.540

1. Cc1nc(-c2ccc(OCC(C)C)c(C#N)c2)sc1C(=O)O [Form IX]
2. Cc1nc(-c2ccc(OCC(C)C)c(C#N)c2)sc1C(=O)O [Form V]
For 1 and 2 , which recorded Change in Mass (%) - ref, Desorption is lower? Please respond with the label that marks your chosen entry.
2

###

Assay Summary: Hygroscopicity measurements (DVS sorption/desorption profiles)
Assay type: physicochemical
Details: Target % P/P0 50.0; 25° C.
Reported Metric: Change in Mass (%) - ref, Hysteresis

Solved cases (2 shown):
1) Cc1nc(-c2ccc(OCC(C)C)c(C#N)c2)sc1C(=O)O [Form XI]; 0.169
2) Cc1nc(-c2ccc(OCC(C)C)c(C#N)c2)sc1C(=O)O [Form IX]; 0.184

1. Cc1nc(-c2ccc(OCC(C)C)c(C#N)c2)sc1C(=O)O [Form G of U.S. Pat. No. 6,225,474, reference compound]
2. Cc1nc(-c2ccc(OCC(C)C)c(C#N)c2)sc1C(=O)O [Form V]
Among 1 and 2 , which shows a numerically higher Change in Mass (%) - ref, Hysteresis result? Please respond with the label that marks your chosen entry.
2
(2: 0.93%, 1: 0.173%)

###

Assay Summary: Aqueous solubility measurements
Type: physicochemical
Details: media FeSSIF; 24 hours at 25° C.
Reported Metric: Visual solubility

1. Cc1nc(-c2ccc(OCC(C)C)c(C#N)c2)sc1C(=O)O [Form XI]; Turbid + few particles
2. Cc1nc(-c2ccc(OCC(C)C)c(C#N)c2)sc1C(=O)O [Form V]; Turbid + few particles
3. Cc1nc(-c2ccc(OCC(C)C)c(C#N)c2)sc1C(=O)O [Form G of U.S. Pat. No. 6,225,474, reference compound]; Turbid + few particles

###

Assay Summary: Aqueous solubility measurements
Type: physicochemical
Details: final pH of saturated solution; media FeSSIF; 24 hours at 25° C.
Reported Metric: pH

1. Cc1nc(-c2ccc(OCC(C)C)c(C#N)c2)sc1C(=O)O [Form XI]; 4.998
2. Cc1nc(-c2ccc(OCC(C)C)c(C#N)c2)sc1C(=O)O [Form G of U.S. Pat. No. 6,225,474, reference compound]; 4.965
3. Cc1nc(-c2ccc(OCC(C)C)c(C#N)c2)sc1C(=O)O [Form IX]; 4.983
4. Cc1nc(-c2ccc(OCC(C)C)c(C#N)c2)sc1C(=O)O [Form V]; 4.995
